Source: ChEMBL document CHEMBL1201862

Would you kindly list GI50 for each of these molecules?
- Test system: SNB-19
- test: NCI tumour cell line growth inhibition, 48 h
The source made the active and inactive calls. No stated cut-off is given here; in the data, active = GI50 up to about 1.1 µM and inactive = higher.

Data request, read-out GI50, for `CCN(CC)CCN(/C(=N/c1ccccc1)N1CCOCC1)c1ccccc1` > 100 µM (inactive)

Data request, read-out GI50, for COc1cccc(N(CN2C(=O)CCC2C(=O)O)C(C)=O)c1 (centres undefined) > 100 µM (inactive)

Data request, read-out GI50, for `COc1cc(/C=C/C(=O)c2ccc(NS(=O)(=O)c3cc([N+](=O)[O-])ccc3C)cc2)cc(OC)c1OC` 3.85 µM (inactive)

Data request, read-out GI50, for `N#Cc1c(-c2ccco2)cc(-c2ccc(N)cc2)[nH]c1=O` > 100 µM (inactive)

Data request, read-out GI50, for `Oc1ccc(NCn2c(=S)sc3ccccc32)cc1` > 100 µM (inactive)

Data request, read-out GI50, for `COc1cc(-c2nc3ccccn3c2/N=C/c2cc(Br)cc(Br)c2O)ccc1O` 26.1 µM (inactive)

Data request, read-out GI50, for `O=c1cc(NNc2ccc(F)cc2)[nH]c(=O)[nH]1` 19.3 µM (inactive)

Data request, read-out GI50, for `OCCCNc1ccnc2cc(Cl)ccc12` > 100 µM (inactive)

Data request, read-out GI50, for CC(=O)O[C@H]1C(=O)[C@@]2(C)C([C@H](OC(=O)c3ccccc3)[C@]3(O)C[C@H](OC(=O)[C@H](O)[C@@H](NC(=O)c4ccc(Cl)cc4)c4ccccc4)C(C)=C1C3(C)C)C1(OC(C)=O)CO[C@@H]1C[C@@H]2O (some centres undefined) 0.137 µM (active)

====

- System: SNB-75
- test: NCI tumour cell line growth inhibition, 48 h
The source made the active and inactive calls. No stated cut-off is given here; in the data, active = GI50 up to about 1.1 µM and inactive = higher.
Would you kindly list GI50 for each of these compounds?

Param readout = GI50; param system = SNB-75; param query = `O=C(NCCCN(CCCCN(CCCNC(=O)C(F)(F)F)Cc1ccccc1)Cc1ccccc1)C(F)(F)F` ; response: value 12.6 µM (inactive)

Param readout = GI50; param system = SNB-75; param query = `O=C1C=Cc2c1csc2Br` ; response: value > 100 µM (inactive)

Param readout = GI50; param system = SNB-75; param query = `COc1cc(/C=C2\N=C(c3ccccc3)N(c3ccc(C(=O)c4ccccc4)cc3N3C(=O)/C(=C/c4cc(OC)c(OC)c(OC)c4)N=C3c3ccccc3)C2=O)cc(OC)c1OC` ; response: value 7.36 µM (inactive)

====

- Tested on: HCC 2998
- test: NCI tumour cell line growth inhibition, 48 h
Active and inactive are the calls of the source. No stated cut-off is given here; in the data, active = GI50 up to about 1.1 µM and inactive = higher.
Respond with a class label; see Y (active), N (inactive)

Which outcome did this test record for the molecule `O=c1c2sc3nc(NCCN4CCCCC4)ncc3c2ncn1-c1ccccc1` ? N

Which outcome did this test record for the molecule Cc1c(C#N)c(N)n(C2OC(CO)C(O)C(O)C2O)c(=S)c1C#N (stereo not given) ? N

Which outcome did this test record for the molecule `COc1ccc2c3c1O[C@]1(C)C34CCN(C)C(C2)C42C=C[C@@]1(OC)c1c(O)ccc(O)c12` ? N

Which outcome did this test record for the molecule CCCS(=O)OC1C(C2COC(C)(C)O2)OC2OC(C)(C)OC21 (stereo not given) ? N

Which outcome did this test record for the molecule `COc1ccc(O)c(C(=O)CCC(=O)O)c1` ? N

Which outcome did this test record for the molecule COC(=O)c1cc(NC2OCC(OC(C)=O)C(OC(C)=O)C2OC(C)=O)nc(SC)c1C(=O)OC (stereo not given) ? N

Which outcome did this test record for the molecule `CC(C)c1cccc(C(C)C)c1/N=C(/N)C#N` ? N

Which outcome did this test record for the molecule `CCN(CC)CCn1c2ccccc2c(=O)c2c(O)ccc(O)c21` ? N

Which outcome did this test record for the molecule `Cc1cc(NS(=O)(=O)c2ccc(Nc3c4ccccc4nc4c(C(=O)Nc5ccc(S(=O)(=O)N=C(N)N)cc5)ccc(Cl)c34)cc2)no1` ? N

Which outcome did this test record for the molecule `CCCCCC(=O)Nc1nc(O)c2[nH]cnc2n1` ? N

Which outcome did this test record for the molecule `FC(F)(F)c1cccc(/C=N/C23CC4CC(CC(C4)C2)C3)c1` ? N

Which outcome did this test record for the molecule `Cc1cc(C(C)(C)C)c(OCCCN2CCOCC2)c(C(C)(C)C)c1` ? N

Which outcome did this test record for the molecule `CN(C)C(=N)/N=C(\N)Nc1cccc(Cl)c1` ? N

Which outcome did this test record for the molecule `COc1cccc(-c2cc(O)c3cc(OC)ccc3n2)c1` ? Y

Which outcome did this test record for the molecule `c1ccc2c3nnc(c2c1)SCCSCCCSCCS3` ? N

Which outcome did this test record for the molecule CC1OC(OC2C(O)COC(OC3C(C)OC(OC4C(OC(=O)[C@]56CCC(C)(C)C[C@@H]5C5=CCC7[C@@]8(C)C[C@H](O)[C@H](OC9OC(CO)C(O)C(O)C9O)[C@@](C)(CO)[C@@H]8CC[C@@]7(C)[C@]5(C)CC6)OCC(O)C4O)C(O)C3OC3OCC(O)C(O)C3O)C2O)C(O)C(O)C1O (stereo not given in full) ? N

Which outcome did this test record for the molecule `O=C(O)CSc1nnc(-c2ccco2)[nH]1` ? N

Which outcome did this test record for the molecule C[C@@H]1C(=O)CC2(O)[C@@]13C[C@@H](OC(=O)[C@@H]3O)[C@@H](C)[C@@]21COC1=O (stereo not given in full) ? N

Which outcome did this test record for the molecule `O=C(Nc1ccccn1)/C(=C\C(=O)c1ccc(Cl)cc1)Nc1ccccc1` ? N

Which outcome did this test record for the molecule C=C1C(O)C23CCC4C(C(=O)O)(C(=O)O)CC(OC5OC(CO)C(O)C(OC(=O)CCc6ccccc6)C5NC(=O)CC(C)C)CC4(C)C2CCC1(O)C3 (stereo not given) ? N

Which outcome did this test record for the molecule CCCCCC(C/C=N/N(C)C)C(O)(C(F)(F)F)C(F)(F)F (stereo not given) ? N

Which outcome did this test record for the molecule `NC1=C(C(=O)O)C(=O)C(Nc2c(O)cccc2C(=O)O)=CC1=O` ? N

Which outcome did this test record for the molecule CCCCc1ccc(Nc2nc(Cl)c3c(ncn3C3CC(Oc4ccc(C)cc4)C(COc4ccc(C)cc4)O3)n2)cc1 (stereo not given) ? N

Which outcome did this test record for the molecule `O=[N+]([O-])c1cc(Cl)cnc1Br` ? N

Which outcome did this test record for the molecule `Oc1ccc(/C=N/NC(=S)Nc2cccnc2)nc1` ? N

Which outcome did this test record for the molecule `Cc1cc([N+](=O)[O-])c(S(=O)(=O)c2ccccc2)c([N+](=O)[O-])c1` ? N

Which outcome did this test record for the molecule `Cc1c(CCCl)c(Cl)n2c(nc3ccccc32)c1C#N` ? N

Which outcome did this test record for the molecule `O=C(c1ccc(Cl)cc1)c1ccc(OCCCOc2ccc(C(=O)c3ccc(Cl)cc3)cc2)cc1` ? N

Which outcome did this test record for the molecule COC(=O)C1(CCC(C)=O)CCCCCC1=O (stereo not given) ? N

Which outcome did this test record for the molecule CC(C)CCCC(C)C1CCC2C3CC([N+](=O)[O-])=C4CC(O)CCC4(C)C3CCC12C (stereo not given) ? N

Which outcome did this test record for the molecule `CCOC(=O)[C@H](CO)NC1=C(Cl)C(=O)c2c(O)ccc(O)c2C1=O` ? N

Which outcome did this test record for the molecule `Cc1ccc2c(c1)-c1c(C#N)c(N)nc(-c3ccccc3)c1CCS2(=O)=O` ? N

Which outcome did this test record for the molecule `O=C1Oc2ccccc2C(=O)/C1=C\Nc1nc(-c2ccc(O)c(O)c2)cs1` ? N

Which outcome did this test record for the molecule CC(=O)OCC1OC(n2c(-c3cccs3)c3c(c(C#N)c2=S)-c2ccccc2CC3)C(OC(C)=O)C(OC(C)=O)C1OC(C)=O (stereo not given) ? N

Which outcome did this test record for the molecule `C=C1C(=O)O[C@H]2[C@H]1[C@@H](OC(=O)C=C(C)C)CC1=C[C@@H](C[C@@]3(C)O[C@@H]23)OC1=O` ? N

Which outcome did this test record for the molecule `CCc1ccccc1NC(=O)C(=O)CC(=O)c1sc(Nc2ccccc2Cl)nc1C` ? N

Which outcome did this test record for the molecule `CC(=O)Nc1ccc(/C=C/C(=O)c2sc(C(N)=S)nc2C)cc1` ? N

Which outcome did this test record for the molecule `COc1ccccc1NC(=O)C1=C(C)NC(C)=C(C(=O)Nc2ccccc2OC)C1c1ccccc1[N+](=O)[O-]` ? N

Which outcome did this test record for the molecule `CCn1c2ccccc2c2cc(NC(=O)c3c(C)nc(O)nc3NCCNCCO)ccc21` ? N

Which outcome did this test record for the molecule CC1CCC2N(C1)CC1C3(O)CC45OC6(O)C(O)CCC4(C)C6CCC5C3(O)CC(O)C1(O)C2(C)O (stereo not given) ? N
